# Experimental Details: E. coli acrAB mutant growth effects, primary screen, E. coli filamentation inducers, strain DRC39, OD650, 24 h (AID 1178);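 further: growth measured as culture turbidity by optical density at 650 nm; test concentration not given here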
# Settings: higher = more signal, called active from +8 up or from −8 down
Endpoint Label: z-score
Give bare numbers.

# example entries with known answers
INSERT INTO measurements (compound, reported_result) VALUES
  ('CC(C)OC(=O)C=C1C[C@@H](c2ccc(C(F)(F)F)cc2)O[C@@H](c2ccc(C(F)(F)F)cc2)O1', 0.2),
  ('COc1ccc(C#Cc2ccc3c(c2)[C@]2(C(=O)N3)[C@H](c3ccc(O)cc3)N3[C@H](c4ccccc4)[C@H](c4ccccc4)OC(=O)[C@H]3[C@@H]2C(=O)O)cc1', 0.355),
  ('O=C(CS)NCCCCCCNC(=O)[C@H]1C[C@H]2C(=O)N[C@@H](Cc3ccccc3)C(=O)N2[C@H]1c1ccc(O)cc1', 0.0577),
  ('CCCCN1CC=CC23O[C@@H]4/C=C\CCC(C)OC(=O)C4[C@H]2C(=O)N(C(CO)C(C)C)[C@@H]3C1=O (some centres not stated)', 0.375),
  ('[N-]=[N+]=Nc1ccccc1[C@H]1OC(c2ccc(OCCCO)cc2)=N[C@@]1(Cc1ccccc1)C(=O)N1CCCCC1', 0.359),
  ('COc1cc2c(cc1O)C(C)N(Cc1ccc([N+](=O)[O-])o1)CC2 (configuration not stated)', -1.04);

(Q) Which z-score value is on record for COC(=O)[C@@]1(Cc2ccc(OC)cc2)[C@H]2c3cc(C(=O)N4CCCC4)n(Cc4c(-c5ccccc5)noc4C)c3C[C@H]2CN1C(=O)c1ccccc1 ?
(A) 0.343

###

# Experimental Details: PSAC antagonists in infected red cells, primary screen, cell-based, P. falciparum Indochina, OD700, 2 h (AID 1155);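 further: lysis reports solute entry through the parasite surface anion channel PSAC; channel blockers reduce lysis of infected cells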
# Settings: P. falciparum Indochina infected erythrocytes, osmotic lysis OD700; higher = more signal, called active from +8 up or from −8 down
Please provide measured z-score for the entries that follow.
One number for each entry.

# example entries with known answers
INSERT INTO measurements (compound, reported_result) VALUES
  ('O=C1OCC=C[C@H]2OC34C=CCN(c5ccc(Cl)cc5)C(=O)[C@H]3N(CCO)C(=O)[C@@H]4[C@@H]12 (some centres undefined)', 0.0971),
  ('CC1=C([C@H](O)CCc2ccccc2)[C@H](CO)[C@@H]2C(=O)N(C)C(=O)[C@@H]2C1', 0.403);

Quick request: z-score for each listed item, please.
1. CCOC(=O)C1=CC[C@@H](c2ccc(OCc3ccccc3)c(OC)c2)N(S(=O)(=O)c2ccc(C)cc2)[C@H]1c1ccc(SC)cc1
2. C[C@]1(C(=O)NC2CC2)c2ccccc2C(=O)N(Cc2ccccc2)[C@H]1c1ccc(CO)cc1

(A)
[0.9, 0.17]

###

# Experimental Details: E. coli DRC41 culture turbidity changes, primary screen, E. coli filamentation inducer project, strain DRC41, OD650, 48 h (AID 1152);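 further: E. coli MC1000 strain DRC41 lacking acrAB efflux pump and sulA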
# Settings: E. coli DRC41 (acrAB sulA), higher = more signal, called active from +8 up or from −8 down
Endpoint Label: z-score
Give bare numbers.

# example entries with known answers
INSERT INTO measurements (compound, reported_result) VALUES
  ('C=CC[C@]1(C(=O)NCCN2CCOCC2)N=C(c2ccc(OCCCO)cc2)O[C@H]1c1ccccc1CN=[N+]=[N-]', 1.33),
  ('CC(C)C(=C=CC[C@H](O)c1ccc(OCCO)cc1)C[C@H](O)c1ccccn1', 0.839),
  ('O[C@@H](Cc1ccccc1)[C@@H](/C=C/C1CC1)N(CC#Cc1ccccc1)Cc1cccc(Cl)c1', 1.96),
  ('NC(N)=NCCCn1cc(CNC(=O)[C@@H](N)Cc2ccccc2)nn1', -0.929),
  ('C=C[C@@H](OC)[C@H](OC(=O)Nc1ccc(SC)cc1)c1ccc(O)c(F)c1', -1.51),
  ('COc1ccc(C(O)C2C=CC3C(=O)N(c4ccccc4)C(=O)C3N2Nc2ccc([N+](=O)[O-])cc2)cc1 (stereo not drawn)', -1.35),
  ('CC(C)C(CO)N1C(=O)[C@@H]2C3C(=O)OCCC/C=C\[C@H]3OC23C=CCN(C(C)(C)C)C(=O)[C@@H]13 (stereo partly drawn)', -0.69);

Now for a further compound.
(Q) Which z-score value is on record for CC(C)(C)OC(=O)CC[C@]1(C(=O)NCc2ccccc2)N=C(c2ccc(OCCCO)cc2)O[C@H]1c1ccccc1CN=[N+]=[N-] ?
(A) 0.829

###

# System: Sam68 (KHDRBS1)
# Experimental Details: Sam68 small-molecule binders, primary screen, biochemical, small-molecule microarray, 635 nm fluorescence (AID 1125);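 further: score merges 667 nm channel intensity with signal to noise over triplicate slides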
# Settings: small-molecule microarray binding, higher = more signal
Please provide measured composite z-score for the entries that follow.
Give bare numbers.

INSERT INTO results (compound, endpoint_label, reported_result) VALUES
  ('COC(=O)[C@@]1(Cc2ccc(OC)cc2)[C@H]2c3cc(C(=O)N(C)C)n(C[C@H](O)CO)c3C[C@H]2CN1C(=O)c1ccccc1', 'composite z-score', 0.833),
  ('O=C1OCCC/C=C\[C@H]2OC34C=CCN(CCN5CCOCC5)C(=O)[C@H]3N(CCCCCCO)C(=O)[C@@H]4C12 (some centres undefined)', 'composite z-score', 0.184),
  ('O=C(NCC(F)(F)F)[C@@H]1c2ccccc2C(=O)N(Cc2ccccc2C(F)(F)F)[C@H]1c1ccc(CO)cc1', 'composite z-score', 0.163),
  ('COC(=O)[C@@]1(Cc2ccc(F)cc2)[C@H]2c3cc(C(=O)N4CCCC4)n(CCN4CNCC4=O)c3C[C@H]2CN1C(=O)c1ccccc1', 'composite z-score', 0.592),
  ('COc1ccc([Si](C)(C)[C@@H]2[C@@H](CC(=O)N(CCO)Cc3ccccc3)O[C@]3(C(=O)N(c4ccccc4)c4ccccc43)[C@H]2C)cc1', 'composite z-score', 0.981);

Quick request: composite z-score for each listed item, please.
1. C=CCN1C(=O)[C@@]2(O[C@@H](CCn3cc([C@H](O)c4ccccc4)nn3)[C@H]([Si](C)(C)c3ccc(OC)cc3)[C@H]2C)c2cc(N3CCC3=O)ccc21
2. COCCOC(=O)N1C(=O)[C@@]2(c3cc(C#CC4=CCCCC4)ccc31)[C@H](c1ccccc1OCCO)N1[C@H](c3ccccc3)[C@H](c3ccccc3)OC(=O)[C@H]1[C@@H]2C(=O)N1CCCCCCC1
3. O=C1O[C@H](c2ccccc2)[C@H](c2ccccc2)N2[C@H]1[C@@H](C(=O)N1CCN(c3ncccn3)CC1)[C@]1(C(=O)Nc3ccc(C#CC4(O)CCCCCC4)cc31)[C@H]2c1ccc(OCCO)cc1
4. O=C1O[C@H](c2ccccc2)[C@H](c2ccccc2)N2[C@H]1[C@@H](C(=O)O)[C@]1(C(=O)Nc3ccc(C#CC4=CCCCC4)cc31)[C@H]2c1ccc(O)cc1

(A)
0.636
1.34
1.29
0.712

Quick request: composite z-score for each listed item, please.
1. CC(C)(C)N1CC=CC23O[C@@H]4C=CCCOC(=O)C4[C@H]2C(=O)N(CCO)[C@@H]3C1=O (some centres undefined)
2. Cc1cc(C)cc(N2C(=O)CSC2c2cccc([N+](=O)[O-])c2)c1 (centres undefined)

(A)
[-0.889, 1.3]

###

# System: glycogen synthase kinase-3 (GSK3A per assay name; protocol says GSK3B)
# Experimental Details: GSK3 binders on small-molecule microarrays, primary screen, biochemical, small-molecule microarray, 635 nm fluorescence, GSK3A (AID 1103); further: the record names both GSK3A and GSK3B
# Settings: small-molecule microarray binding, fluorescence 635 nm; higher = more signal
If the reported composite z-score equals or exceeds 0.4, assign met. If not, assign not met.

Consider the worked cases shown below.
INSERT INTO results (molecule, qualitative_label) VALUES
  ('CC(C)N1C(=O)c2ccccc2[C@@H](C(=O)NC2CC2)[C@@H]1c1ccc(CO)cc1', 'met'),
  ('COC1OC[C@]2(C)[C@H]3C4=C(CN2C(=O)OC(C)(C)C)[C@H](C)C(CO)C(CO)C4CC[C@@H]13 (some centres not stated)', 'met'),
  ('COc1ccc(C#Cc2ccc3c(c2)[C@]2(C(=O)N3)[C@H](c3ccc(O)cc3)N3[C@H](c4ccccc4)[C@H](c4ccccc4)OC(=O)[C@H]3[C@@H]2C(=O)O)cc1', 'met');

(Q) Is composite z-score at least 0.4? Consider COc1cc(CO)cc(I)c1O[C@H]1C=C(C(=O)NCCO)C[C@@H](NCc2ccc(F)cc2)[C@@H]1O
(A) not met

(Q) Is composite z-score at least 0.4? Consider COc1ccc(C(O)C2C=CC3C(=O)N(c4ccccc4)C(=O)C3N2Nc2ccc([N+](=O)[O-])cc2)cc1 (configuration not stated)
(A) met

(Q) Is composite z-score at least 0.4? Consider COC(=O)[C@@]1(Cc2ccc(OC)cc2)[C@H]2c3cc(C(=O)N(C)C)n(Cc4ccc(Cl)c(C(F)(F)F)c4)c3C[C@H]2CN1C(=O)c1ccccc1
(A) not met
